# Test system: 883617-216-R-J1-PDC complex spheroid viability;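 further: spheroids exposed to compounds for seven days before readout; 100% = DMSO vehicle control viability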
# protocol details: Anticancer human tumor 883617-216-R-J1-PDC patient-derived bladder carcinoma cell line growth inhibition [POLQ]
# condition description: second compound 0.316 µM; first compound 10 µM; stronger effect = lower value
Collected viability, T/C values appear next to each entry.
API: value field is a number in %; no unit string.

Recorded results for 4 molecules are shown here.
CCc1cc2c(N3CCc4c(cc(Cn5ccnc5)cc4-c4cn(C)nc4C(F)(F)F)C3=O)cc(C)nc2c(OC)n1 + Cc1cccc(N(C)C(=O)C2C(O)CCN2c2nc(C)cc(C(F)(F)F)c2C#N)c1    53
C#Cc1c(F)ccc2cc(O)cc(-c3ncc4c(N5CC6CCC(C5)N6)nc(OCC56CCCN5CC(F)C6)nc4c3F)c12 (stereo not given) + Cc1cccc(N(C)C(=O)C2C(O)CCN2c2nc(C)cc(C(F)(F)F)c2C#N)c1    77.6
CC1COCCN1c1cc(C2(O)CC3CCC(C2)O3)c2cnn(-c3ccn[nH]3)c2n1 (stereo not given) + Cc1cccc(N(C)C(=O)C2C(O)CCN2c2nc(C)cc(C(F)(F)F)c2C#N)c1    24
CCc1cc2c(N3CCc4c(cc(Cn5ccnc5)cc4-c4cn(C)nc4C(F)(F)F)C3=O)ccnc2c(OC)n1 + Cc1cccc(N(C)C(=O)C2C(O)CCN2c2nc(C)cc(C(F)(F)F)c2C#N)c1    43.7

Prompt: What measured viability, T/C is associated with CNCc1ccc(-c2[nH]c3cc(F)cc4c3c2CCNC4=O)cc1 + COC1C(OC(N)=O)C(O)C(Oc2ccc3c(O)c(NC(=O)c4ccc(O)c(CC=C(C)C)c4)c(=O)oc3c2C)OC1(C)C on 883617-216-R-J1-PDC complex spheroid viability?
Completion: 94
